- Measured target: human AR (Homo sapiens)
- Sequence (P10275 1-920): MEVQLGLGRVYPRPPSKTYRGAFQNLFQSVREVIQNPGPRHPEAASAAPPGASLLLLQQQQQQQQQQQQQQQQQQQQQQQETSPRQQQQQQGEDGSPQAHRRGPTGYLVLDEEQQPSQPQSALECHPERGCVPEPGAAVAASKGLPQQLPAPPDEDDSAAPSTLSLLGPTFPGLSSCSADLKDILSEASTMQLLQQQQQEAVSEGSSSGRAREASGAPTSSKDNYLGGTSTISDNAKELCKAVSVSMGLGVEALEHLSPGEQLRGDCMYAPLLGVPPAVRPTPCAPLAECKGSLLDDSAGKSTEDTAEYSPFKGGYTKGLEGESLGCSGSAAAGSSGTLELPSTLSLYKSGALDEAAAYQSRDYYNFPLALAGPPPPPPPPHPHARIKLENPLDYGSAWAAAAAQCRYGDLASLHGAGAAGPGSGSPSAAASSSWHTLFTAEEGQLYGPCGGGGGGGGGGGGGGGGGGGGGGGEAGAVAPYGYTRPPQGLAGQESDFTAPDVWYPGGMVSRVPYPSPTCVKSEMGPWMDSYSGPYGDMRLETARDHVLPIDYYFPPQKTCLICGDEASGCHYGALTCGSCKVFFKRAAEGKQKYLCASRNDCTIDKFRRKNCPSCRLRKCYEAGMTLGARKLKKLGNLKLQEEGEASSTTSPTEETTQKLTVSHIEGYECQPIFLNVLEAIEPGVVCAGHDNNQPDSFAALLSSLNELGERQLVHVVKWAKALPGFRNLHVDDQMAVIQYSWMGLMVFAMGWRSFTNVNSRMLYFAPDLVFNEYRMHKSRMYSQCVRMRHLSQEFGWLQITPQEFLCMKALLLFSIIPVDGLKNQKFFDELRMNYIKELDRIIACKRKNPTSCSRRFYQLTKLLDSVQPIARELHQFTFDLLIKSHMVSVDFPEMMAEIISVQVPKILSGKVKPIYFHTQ
- Assay name: Co-transfection assay, AR antagonist activity in presence of DHT, CV-1 cells
- Type: cell-based
- Design: expressed in transfected cells; host or cells: CV-1 cells (African green monkey kidney fibroblasts), transient transfection with pRShAR
- Condition label: AR Antagonist CV-1 Cells Potency (nM), CV-1 cells; antagonist potency or IC50, DHT at its EC50 concentration
Parameter measured: IC50

CCCC1C(CC)c2c(ccc3[nH]c(=O)cc(C(F)(F)F)c23)N1CC(F)(F)F (racemic) [Compound 146] | 1 nM
CC1CCc2cc3[nH]c(=O)cc(C(F)(F)F)c3cc2N1CC1CC1 (centres unmarked) [Compound 195] | > 10000 nM

Inquiry: Provide value of IC50 for this record tested with human AR (Homo sapiens): O=c1cc(C(F)(F)F)c2c3c(ccc2[nH]1)N(Cc1ccoc1)C1CCCC31 (racemic) [Compound 126]
Reply text: > 10000 nM

----------
- Measured target: human AR (Homo sapiens, UniProt P10275)
- Assay name: Co-transfection assay, AR agonist activity, CV-1 cells
- Type: cell-based
- Design: expressed in transfected cells; host or cells: CV-1 cells (African green monkey kidney fibroblasts), transient transfection with pRShAR
- Condition label: AR Agonist CV-1 Cells Potency (nM), agonist potency or EC50
Entries and their EC50
# value in nM; strip the unit string

Before answering, review these 4 worked examples.
CCCC1C(CC)c2c(ccc3[nH]c(=O)cc(C(F)(F)F)c23)N1CC(F)(F)F (racemic) | 49
CC1(C)CCc2c(ccc3[nH]c(=O)cc(C(F)(F)F)c23)N1CC(F)(F)F | 21
CCC1(CC)CCc2c(ccc3[nH]c(=O)cc(C(F)(F)F)c23)N1 | 32
O=c1cc(C(F)(F)F)c2c3c(ccc2[nH]1)N(CC(F)(F)F)C1CCCC31 (single isomer, unassigned; (+)) [Compound 178] | 21

Now for a further molecule.
Inquiry: Reported EC50, molecule CC1(C)C=Cc2c(ccc3[nH]c(=O)cc(C(F)(F)F)c23)N1 : ____
Reply text: 12

----------
- Measured target: human AR (Homo sapiens, UniProt P10275)
- Sequence (P10275 1-920): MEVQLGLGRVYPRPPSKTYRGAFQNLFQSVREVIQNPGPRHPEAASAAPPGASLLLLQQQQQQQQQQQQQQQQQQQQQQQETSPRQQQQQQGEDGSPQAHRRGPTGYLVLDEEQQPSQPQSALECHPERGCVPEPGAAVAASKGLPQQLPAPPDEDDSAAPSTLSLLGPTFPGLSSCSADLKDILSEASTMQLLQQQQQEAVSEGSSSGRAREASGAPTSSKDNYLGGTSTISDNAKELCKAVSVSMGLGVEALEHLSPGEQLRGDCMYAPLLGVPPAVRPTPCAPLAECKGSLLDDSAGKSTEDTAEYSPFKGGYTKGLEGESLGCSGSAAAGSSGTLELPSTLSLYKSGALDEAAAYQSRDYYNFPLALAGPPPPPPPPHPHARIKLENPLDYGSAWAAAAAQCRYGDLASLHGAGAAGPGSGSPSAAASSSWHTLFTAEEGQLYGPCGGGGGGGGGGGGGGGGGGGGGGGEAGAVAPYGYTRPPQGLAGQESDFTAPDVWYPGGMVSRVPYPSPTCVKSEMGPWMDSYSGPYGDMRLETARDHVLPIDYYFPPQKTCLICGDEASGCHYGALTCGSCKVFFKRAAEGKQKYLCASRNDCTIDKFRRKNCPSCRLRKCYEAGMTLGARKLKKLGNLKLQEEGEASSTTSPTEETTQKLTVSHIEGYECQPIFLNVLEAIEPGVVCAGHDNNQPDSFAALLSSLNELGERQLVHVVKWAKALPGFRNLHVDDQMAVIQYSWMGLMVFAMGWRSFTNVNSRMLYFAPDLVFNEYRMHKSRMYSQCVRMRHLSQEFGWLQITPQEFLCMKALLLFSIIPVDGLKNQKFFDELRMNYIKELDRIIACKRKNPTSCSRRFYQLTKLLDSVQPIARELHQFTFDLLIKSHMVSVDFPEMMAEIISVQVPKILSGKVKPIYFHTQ
- Assay name: Co-transfection assay, AR agonist activity, CV-1 cells
- Assay type: cell-based
- Parameters: expressed in transfected cells; host or cells: CV-1 cells (African green monkey kidney fibroblasts), transient transfection with pRShAR
- Condition label: percent maximal response relative to reference agonist DHT
Parameter measured: AR Agonist CV-1 Cells Efficacy (%)

Inquiry: Reported AR Agonist CV-1 Cells Efficacy (%), compound CCC1C(C)c2c(ccc3[nH]c(=O)cc(C(F)(F)F)c23)N1CC(F)(F)F (racemic) [Compound 134] : ____
Reply text: 70%

----------
- Measured target: human AR (Homo sapiens)
- Sequence (P10275 1-920): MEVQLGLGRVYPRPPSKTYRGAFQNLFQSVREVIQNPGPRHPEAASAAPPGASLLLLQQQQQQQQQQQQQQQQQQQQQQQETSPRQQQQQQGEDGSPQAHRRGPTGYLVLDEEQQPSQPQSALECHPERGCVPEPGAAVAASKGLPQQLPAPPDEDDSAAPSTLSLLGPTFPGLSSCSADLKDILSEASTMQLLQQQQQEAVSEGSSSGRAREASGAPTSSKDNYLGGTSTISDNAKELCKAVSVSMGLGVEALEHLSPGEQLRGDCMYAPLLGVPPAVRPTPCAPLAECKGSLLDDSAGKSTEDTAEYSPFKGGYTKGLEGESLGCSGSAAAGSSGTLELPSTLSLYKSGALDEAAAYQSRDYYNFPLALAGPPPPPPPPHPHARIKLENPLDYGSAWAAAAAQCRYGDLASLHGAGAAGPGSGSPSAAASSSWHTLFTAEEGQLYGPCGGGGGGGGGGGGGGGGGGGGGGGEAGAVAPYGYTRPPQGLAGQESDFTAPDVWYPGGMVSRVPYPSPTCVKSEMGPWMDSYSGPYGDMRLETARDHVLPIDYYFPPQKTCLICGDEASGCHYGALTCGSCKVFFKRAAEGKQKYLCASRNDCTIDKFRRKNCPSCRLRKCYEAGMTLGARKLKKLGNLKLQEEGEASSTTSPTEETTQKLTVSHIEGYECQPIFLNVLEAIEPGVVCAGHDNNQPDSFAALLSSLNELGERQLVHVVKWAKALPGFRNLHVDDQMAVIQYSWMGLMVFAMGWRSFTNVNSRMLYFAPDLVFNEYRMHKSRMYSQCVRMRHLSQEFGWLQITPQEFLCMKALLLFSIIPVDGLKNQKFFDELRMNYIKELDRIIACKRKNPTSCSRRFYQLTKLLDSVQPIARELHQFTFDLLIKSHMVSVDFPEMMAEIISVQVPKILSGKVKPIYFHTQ
- Assay name: Co-transfection assay, AR agonist activity, CV-1 cells
- Assay type: cell-based
- Design: expressed in transfected cells; host or cells: CV-1 cells (African green monkey kidney fibroblasts), transient transfection with pRShAR
- Condition label: percent maximal response relative to reference agonist DHT
Parameter measured: AR Agonist CV-1 Cells Efficacy (%)

Inquiry: Reported AR Agonist CV-1 Cells Efficacy (%), compound CC1CCc2cc3[nH]c(=O)cc(C(F)(F)F)c3cc2N1CC1CC1 (stereo not drawn) : ____
Reply text: 78%

Attribution: patent US7727980B2
